Hello, the source for this data is paper PMC3582038, in case you need it.

# assay.overview: In vivo pharmacokinetics in rats
# protocol.conditions: rats, IV 10 mg/kg, peak plasma concentration converted to unbound
recorded.endpoint: unbound peak plasma concentration as multiple of the MIC (times the MIC)
The reply should be a number in times the MIC, with the unit left off.

Lab note: measured unbound peak plasma concentration as multiple of the MIC of O=[N+]([O-])c1ccc(C2=NOC(c3ccc(N4CCOCC4)nc3)C2)o1 (stereo not shown) was 9.8

// unbound peak plasma concentration as multiple of the MIC lookup, compound = O=[N+]([O-])c1ccc(C2=NOC(c3ccc(N4CCOCC4)cc3)C2)o1 (stereo not shown) , result: 5.0

The compound identified as O=[N+]([O-])c1ccc(C2=NOC(c3ccc(N4CCCCC4)cc3)C2)o1 (stereo not shown) registered its unbound peak plasma concentration as multiple of the MIC at 4.6

unbound peak plasma concentration as multiple of the MIC measured on CN1CCN(c2ccc(C3CC(c4ccc([N+](=O)[O-])o4)=NO3)cc2)C(=O)C1 (stereo not shown) = 0.71
